Listing: MID of selected compounds
Test system: Colletotrichum acutatum
PROCEDURE_TEXT: Antifungal activity against Colletotrichum acutatum assessed as inhibition of germination at 25 degC measured after 4 to 24 hr
Assay type: functional
Respond with a number, then the unit of measure.

COMPOUND	MEASUREMENT
CCCCCCOC(C)=O [HEXYL ACETATE]	1351.35 uL/L
CC/C=C\CCOC(C)=O [(Z)-hex-3-en-1-yl acetate]	337.84 uL/L
CCC/C=C/COC(C)=O	337.84 uL/L
CC/C=C\CCO [CIS-3-HEXENOL]	337.84 uL/L
CCCCCCO	337.84 uL/L

# value of MID, Colletotrichum acutatum, item CCCCCC=O = 33.78 uL/L

Per the reported Colletotrichum acutatum data, CCC/C=C/C=O has MID of 6.76 uL/L

Tested on Colletotrichum acutatum, the item CCC/C=C/CO showed MID equal to 135.13 uL/L

---

Test system: Colletotrichum acutatum
PROCEDURE_TEXT: Antifungal activity against Colletotrichum acutatum assessed as inhibition of mycelial growth at 25 degC measured after 8 days
Format: functional
The threshold is 200 uL/L. Values of ID50 beneath it are tagged rule met; values meeting or exceeding it are tagged rule not met.

Here are 5 compounds together with their reported answers.
COMPOUND	ASSIGNED_CATEGORY
CCC/C=C/C=O	rule met
CCCCCC=O [HEXANAL]	rule met
CCC/C=C/COC(C)=O	rule not met
CC/C=C\CCOC(C)=O [(Z)-hex-3-en-1-yl acetate]	rule not met
CC/C=C\CCO [CIS-3-HEXENOL]	rule not met

Prompt: Quick check: ID50 of CCC/C=C/CO under 200 uL/L?
Completion: rule met

Prompt: Say whether its ID50 is strictly beneath 200 uL/L. Entry: CCCCCCO [1-HEXANOL]
Completion: rule met

Prompt: Find out if reported ID50 for CCCCCCOC(C)=O [HEXYL ACETATE] is less than 200 uL/L
Completion: rule not met

---

Entries and their measured ID95 follow.
Tested on: Colletotrichum acutatum
PROCEDURE_TEXT: Antifungal activity against Colletotrichum acutatum assessed as inhibition of mycelial growth at 25 degC measured after 8 days
Assay type: functional
Dear colleague, please return just the value in uL/L, with no unit written.

COMPOUND	UNIT_ABBREVIATION	ID95
CC/C=C\CCO [CIS-3-HEXENOL]	uL/L	595

// CCC/C=C/C=O : ID95 value = 32.97

Sample CCCCCC=O ; ID95 observed: 256.49

Field ID95 (entry CCCCCCOC(C)=O [HEXYL ACETATE] ) reads 5100.41

---

// reported ID95 per item
Test system: Colletotrichum acutatum
PROCEDURE_TEXT: Antifungal activity against Colletotrichum acutatum assessed as inhibition of mycelial growth at 25 degC measured after 8 days
Type: functional
Output spec: scalar in uL/L, unitless text.

Worked cases, ID95 given:
MOLECULE	UNIT_ABBREVIATION	ID95
CCC/C=C/CO	uL/L	253.78
CCCCCCO [1-HEXANOL]	uL/L	255.14
CCC/C=C/COC(C)=O	uL/L	584.86

# input for lookup
For reference, reported ID95 for CC/C=C\CCOC(C)=O [(Z)-hex-3-en-1-yl acetate] stands at 2063.11
